Measured On: CaV2.2 (Homo sapiens)
Construct: expressed in transfected cells; host or cells: unnamed doxycycline-inducible cell line
Assay Text: High-throughput CaV2.2/Kir2.3 FLIPR fluorescent assay
Assay type: cell-based
Assay Setup: Table 5; Fluo-4 FLIPR; closed or inactivated state not stated; read-out: FLIPR data CaV2.2
pIC50: −log10 of the molar value.
Recorded Metric: pIC50

As a guide, the following entries are already answered.
CC(C)(CCNC(=O)c1ccc(S(C)(=O)=O)cc1Cl)S(=O)(=O)c1cccc(C(F)(F)F)c1 = 5.87
Cc1cc(C(=O)NCC(C)(C)S(=O)(=O)c2cccc(C(F)(F)F)c2)cc(C)c1O = 5.85
CC(C)(C)C(=O)Nc1ncccc1C(=O)NCC(C)(C)S(=O)(=O)c1cccc(C(F)(F)F)c1 = 5.65
Cc1cncc(C(=O)NCC(C)(C)S(=O)(=O)c2cccc(C(F)(F)F)c2)c1 = 5.04

A. CC(C)(CNC(=O)c1ccc(F)cc1)S(=O)(=O)c1cccc(C(F)(F)F)c1
B. CC(C)(C(=O)N1Cc2ccncc2C1)S(=O)(=O)c1cccc(C(F)(F)F)c1
Among A and B , whose measured pIC50 is the smaller figure? // output: label of the selected item B

A. CCOc1ncccc1C(=O)NCC(C)(C)S(=O)(=O)c1cccc(C(F)(F)F)c1
B. CC(C)(CNC(=O)c1ccnc(C(F)(F)F)c1)S(=O)(=O)c1cccc(C(F)(F)F)c1
Among A and B , whose measured pIC50 is the smaller figure? // output: label of the selected item A

---

Measured On: CaV2.2 (Homo sapiens, UniProt Q00975)
Construct: expressed in transfected cells; host or cells: unnamed doxycycline-inducible cell line
Sequence (Q00975 whole entry): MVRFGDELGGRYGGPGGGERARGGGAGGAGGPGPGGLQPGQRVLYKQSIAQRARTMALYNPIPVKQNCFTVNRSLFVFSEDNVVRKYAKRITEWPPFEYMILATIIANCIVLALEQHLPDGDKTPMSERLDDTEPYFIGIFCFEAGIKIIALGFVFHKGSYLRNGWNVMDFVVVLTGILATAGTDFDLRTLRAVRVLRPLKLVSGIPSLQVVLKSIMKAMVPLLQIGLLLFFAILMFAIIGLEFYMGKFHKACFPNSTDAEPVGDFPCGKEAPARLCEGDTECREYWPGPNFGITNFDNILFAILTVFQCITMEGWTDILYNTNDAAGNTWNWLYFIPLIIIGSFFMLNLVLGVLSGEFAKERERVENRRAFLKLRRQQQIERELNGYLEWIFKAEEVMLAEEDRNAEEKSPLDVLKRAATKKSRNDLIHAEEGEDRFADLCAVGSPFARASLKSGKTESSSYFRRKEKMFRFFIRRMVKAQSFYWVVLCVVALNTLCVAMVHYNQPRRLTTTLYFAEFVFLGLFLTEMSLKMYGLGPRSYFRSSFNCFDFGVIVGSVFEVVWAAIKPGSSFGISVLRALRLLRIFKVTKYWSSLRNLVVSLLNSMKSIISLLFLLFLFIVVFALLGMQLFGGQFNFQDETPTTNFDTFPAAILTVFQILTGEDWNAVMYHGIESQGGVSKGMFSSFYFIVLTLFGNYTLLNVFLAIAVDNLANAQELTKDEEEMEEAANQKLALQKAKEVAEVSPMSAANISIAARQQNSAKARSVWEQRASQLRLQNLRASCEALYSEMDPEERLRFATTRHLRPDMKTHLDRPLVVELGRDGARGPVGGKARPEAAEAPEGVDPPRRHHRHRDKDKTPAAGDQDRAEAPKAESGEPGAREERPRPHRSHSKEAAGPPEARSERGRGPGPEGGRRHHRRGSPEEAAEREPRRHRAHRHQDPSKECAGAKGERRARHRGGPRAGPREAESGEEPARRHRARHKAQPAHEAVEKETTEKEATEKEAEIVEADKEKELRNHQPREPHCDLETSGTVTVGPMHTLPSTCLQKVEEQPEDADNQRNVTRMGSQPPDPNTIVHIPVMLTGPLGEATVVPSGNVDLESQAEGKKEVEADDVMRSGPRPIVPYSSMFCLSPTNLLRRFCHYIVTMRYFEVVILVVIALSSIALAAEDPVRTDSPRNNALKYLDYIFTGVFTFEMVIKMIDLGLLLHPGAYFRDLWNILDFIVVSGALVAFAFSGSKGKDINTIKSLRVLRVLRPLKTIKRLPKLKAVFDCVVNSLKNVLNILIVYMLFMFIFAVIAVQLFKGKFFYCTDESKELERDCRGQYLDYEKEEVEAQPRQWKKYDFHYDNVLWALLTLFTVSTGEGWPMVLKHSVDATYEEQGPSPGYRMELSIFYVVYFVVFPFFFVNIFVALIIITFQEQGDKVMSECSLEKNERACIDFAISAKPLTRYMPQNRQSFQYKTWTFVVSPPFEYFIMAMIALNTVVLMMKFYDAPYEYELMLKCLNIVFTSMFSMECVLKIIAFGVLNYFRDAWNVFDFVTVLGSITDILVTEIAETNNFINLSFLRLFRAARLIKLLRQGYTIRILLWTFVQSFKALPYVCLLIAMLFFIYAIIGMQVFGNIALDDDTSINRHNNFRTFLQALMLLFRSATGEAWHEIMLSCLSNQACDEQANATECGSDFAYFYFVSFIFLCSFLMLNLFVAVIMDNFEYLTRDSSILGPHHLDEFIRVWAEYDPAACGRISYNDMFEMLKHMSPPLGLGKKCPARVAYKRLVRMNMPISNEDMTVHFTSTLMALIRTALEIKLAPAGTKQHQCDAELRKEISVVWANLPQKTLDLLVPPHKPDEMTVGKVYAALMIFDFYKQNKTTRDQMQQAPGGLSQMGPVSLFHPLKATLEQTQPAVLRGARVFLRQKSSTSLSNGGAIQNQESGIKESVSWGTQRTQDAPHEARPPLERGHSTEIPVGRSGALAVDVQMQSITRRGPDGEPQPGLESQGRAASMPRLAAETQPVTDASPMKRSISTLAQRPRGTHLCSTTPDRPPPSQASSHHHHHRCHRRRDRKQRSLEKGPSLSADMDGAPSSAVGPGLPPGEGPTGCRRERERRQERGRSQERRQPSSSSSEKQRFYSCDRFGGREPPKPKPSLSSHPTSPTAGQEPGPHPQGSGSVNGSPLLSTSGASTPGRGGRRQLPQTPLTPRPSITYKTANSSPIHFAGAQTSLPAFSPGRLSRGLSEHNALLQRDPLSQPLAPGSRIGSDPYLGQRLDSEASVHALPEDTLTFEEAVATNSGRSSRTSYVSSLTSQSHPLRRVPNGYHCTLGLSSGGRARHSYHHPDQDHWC
Sequence (P54284 whole entry partner): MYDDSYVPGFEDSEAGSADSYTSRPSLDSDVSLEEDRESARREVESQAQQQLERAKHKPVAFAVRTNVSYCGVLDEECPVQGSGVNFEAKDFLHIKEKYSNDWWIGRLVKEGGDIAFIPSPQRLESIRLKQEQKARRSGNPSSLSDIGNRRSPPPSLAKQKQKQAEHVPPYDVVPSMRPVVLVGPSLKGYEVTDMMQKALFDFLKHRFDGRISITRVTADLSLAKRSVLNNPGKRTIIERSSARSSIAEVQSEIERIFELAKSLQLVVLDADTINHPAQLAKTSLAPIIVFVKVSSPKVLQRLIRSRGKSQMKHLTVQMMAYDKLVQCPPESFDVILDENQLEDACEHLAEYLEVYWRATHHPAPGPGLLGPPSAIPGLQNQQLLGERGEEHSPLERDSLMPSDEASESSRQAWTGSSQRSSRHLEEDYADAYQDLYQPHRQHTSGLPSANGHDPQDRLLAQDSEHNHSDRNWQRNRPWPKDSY
Sequence (P54289 25-946 partner limits assumed): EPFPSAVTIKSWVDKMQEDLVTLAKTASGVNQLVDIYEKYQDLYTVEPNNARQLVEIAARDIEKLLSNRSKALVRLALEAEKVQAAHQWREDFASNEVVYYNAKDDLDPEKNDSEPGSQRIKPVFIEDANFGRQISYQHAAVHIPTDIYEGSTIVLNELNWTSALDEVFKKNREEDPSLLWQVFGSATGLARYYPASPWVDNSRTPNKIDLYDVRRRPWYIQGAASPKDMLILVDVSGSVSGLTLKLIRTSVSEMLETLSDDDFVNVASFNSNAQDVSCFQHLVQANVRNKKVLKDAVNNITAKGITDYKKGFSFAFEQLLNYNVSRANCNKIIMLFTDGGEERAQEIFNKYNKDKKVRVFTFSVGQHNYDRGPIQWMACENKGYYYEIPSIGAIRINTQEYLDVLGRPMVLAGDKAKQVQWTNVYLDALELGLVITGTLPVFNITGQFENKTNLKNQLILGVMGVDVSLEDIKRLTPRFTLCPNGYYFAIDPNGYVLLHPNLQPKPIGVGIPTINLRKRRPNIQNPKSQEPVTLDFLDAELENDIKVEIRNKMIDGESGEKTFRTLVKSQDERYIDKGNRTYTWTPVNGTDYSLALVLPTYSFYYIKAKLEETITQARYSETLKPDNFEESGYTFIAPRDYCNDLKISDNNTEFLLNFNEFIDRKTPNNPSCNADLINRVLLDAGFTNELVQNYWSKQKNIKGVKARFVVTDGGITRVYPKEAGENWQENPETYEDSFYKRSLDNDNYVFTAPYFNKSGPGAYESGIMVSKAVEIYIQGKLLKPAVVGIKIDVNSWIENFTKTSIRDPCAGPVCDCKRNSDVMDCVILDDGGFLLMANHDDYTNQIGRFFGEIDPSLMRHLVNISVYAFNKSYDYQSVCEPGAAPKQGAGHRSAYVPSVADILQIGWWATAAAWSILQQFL
Sequence (P54289 947-1103 partner limits assumed): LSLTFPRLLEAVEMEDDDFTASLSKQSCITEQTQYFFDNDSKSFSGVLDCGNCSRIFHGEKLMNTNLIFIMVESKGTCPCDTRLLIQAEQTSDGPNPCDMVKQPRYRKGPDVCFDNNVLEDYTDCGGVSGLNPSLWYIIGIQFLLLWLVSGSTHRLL
Assay Text: High-throughput CaV2.2/Kir2.3 FLIPR fluorescent assay
Assay type: cell-based
Assay Setup: Table 4; Fluo-4 FLIPR; closed or inactivated state not stated; read-out: FLIPR data CaV2.2
pIC50: −log10 of the molar value.
Recorded Metric: pIC50

CS(=O)(=O)c1cc(C(F)(F)F)cnc1C(=O)NCc1cccc(S(=O)(=O)c2cccc(C(F)(F)F)c2)c1 = 6.39
CS(=O)(=O)c1cc(C(=O)NCc2ccc(S(=O)(=O)c3cccc(C(F)(F)F)c3)cc2)cc(C(F)(F)F)n1 = 6.16
O=C(NCc1ccc(S(=O)(=O)c2cccc(C(F)(F)F)c2)cc1)[C@@H]1C[C@@H](O)CN1 = 5.63
Cn1nc(C(F)(F)F)cc1C(=O)NCc1cc(S(=O)(=O)c2cccc(C(F)(F)F)c2)ccn1 = 6.09
COc1cc(C(=O)NCc2ccc(S(=O)(=O)c3cccc(C(F)(F)F)c3)cn2)cc(Cl)n1 = 5.84

A. CS(=O)(=O)c1cc(C(F)(F)F)cnc1C(=O)NCc1ccc(S(=O)(=O)c2cccc(C(F)(F)F)c2)cc1
B. O=C(NCc1ccc(S(=O)(=O)c2cccc(C(F)(F)F)c2)cc1)c1cc(F)cc(Cl)c1
C. O=C1c2ccc(C(F)(F)F)nc2CN1Cc1ccccc1S(=O)(=O)c1cccc(C(F)(F)F)c1
D. CC(C)S(=O)(=O)c1cc(C(F)(F)F)cnc1C(=O)NCc1cccc(S(=O)(=O)c2cccc(C(F)(F)F)c2)c1
Please give the order of these compounds when sorted by pIC50, largest value leading. Please respond with the labels ordered as the question requires. D, A, B, C
(D: 6.77, A: 6.33, B: 6.02, C: 5.57)

a. Cn1nc(C(F)(F)F)cc1C(=O)NCc1ccc(S(=O)(=O)c2cccc(C(F)(F)F)c2)cc1
b. O=C(NCc1cc(S(=O)(=O)c2cccc(C(F)(F)F)c2)ccn1)c1cn2cc(C(F)(F)F)ccc2n1
c. O=C(NCc1ccccc1S(=O)(=O)c1cccc(C(F)(F)F)c1)c1cc(F)cc(Cl)c1
d. CC(C)(N)C(=O)NCc1ccc(S(=O)(=O)c2cccc(C(F)(F)F)c2)cc1
e. O=C(NCc1ccc(S(=O)(=O)c2cccc(C(F)(F)F)c2)cc1)[C@@H]1CCCN1
Put the compounds in ascending order of pIC50. Please respond with the labels ordered as the question requires. d, e, b, c, a

---

Measured On: CaV3.2 (Homo sapiens)
Construct: expressed in transfected cells; host or cells: unnamed doxycycline-inducible cell line
Assay Text: High-throughput CaV3.2/Kir2.3 T-type FLIPR fluorescent assay
Assay type: cell-based
Assay Setup: Table 4; Fluo-4 FLIPR; closed or inactivated state not stated
Recorded Metric: IC50 (nM)

CS(=O)(=O)c1cc(C(=O)NCc2cccc(S(=O)(=O)c3cccc(C(F)(F)F)c3)c2)cc(C(F)(F)F)n1 = 570
O=C(NCc1ccc(S(=O)(=O)c2cccc(C(F)(F)F)c2)cn1)c1cn2cc(C(F)(F)F)ccc2n1 = 1250
N[C@H](C(=O)NCc1ccc(S(=O)(=O)c2cccc(C(F)(F)F)c2)cc1)c1ccccc1 = 3740
Cn1nc(C(F)(F)F)cc1C(=O)NCc1ccccc1S(=O)(=O)c1cccc(C(F)(F)F)c1 = 1390

1. O=C(NCc1ccc(S(=O)(=O)c2cccc(C(F)(F)F)c2)cn1)c1cnc(C(F)(F)F)nc1
2. COc1cc(C(=O)NCc2cccc(S(=O)(=O)c3cccc(C(F)(F)F)c3)c2)cc(Cl)n1
Identify the entry with the larger IC50. Options: 1 and 2 // output: label of the selected item 1
(1: 4170 nM, 2: 510 nM)

1. O=C(NCc1cccc(S(=O)(=O)c2cccc(C(F)(F)F)c2)c1)c1ccnc(C(F)(F)F)c1
2. O=C(NCc1ccc(S(=O)(=O)c2cccc(C(F)(F)F)c2)cn1)c1ccc(C(F)(F)F)cn1
Identify the entry with the larger IC50. Options: 1 and 2 // output: label of the selected item 2
(2: 1290 nM, 1: 730 nM)

P. O=C(NCc1ccc(S(=O)(=O)c2cccc(C(F)(F)F)c2)cn1)c1ccnc(C(F)(F)F)n1
Q. O=C(NCc1ccc(S(=O)(=O)c2cccc(C(F)(F)F)c2)cc1)c1cc(F)cc(Cl)c1
Among P and Q , whose measured IC50 is the smaller figure? // output: label of the selected item Q

P. O=C(CCC(F)(F)F)NCc1cccc(S(=O)(=O)c2cccc(C(F)(F)F)c2)c1
Q. O=C(NCc1ccc(S(=O)(=O)c2cccc(C(F)(F)F)c2)cc1)c1ccnc(C(F)(F)F)c1
Among P and Q , whose measured IC50 is the smaller figure? // output: label of the selected item Q
(Q: 640 nM, P: 6710 nM)

---

Measured On: CaV2.2 (Homo sapiens, UniProt Q00975)
Construct: expressed in transfected cells; host or cells: unnamed doxycycline-inducible cell line
Assay Text: High-throughput CaV2.2/Kir2.3 FLIPR fluorescent assay
Type: cell-based
Assay Setup: Table 5; Fluo-4 FLIPR; closed or inactivated state not stated; read-out: FLIPR data CaV2.2
Recorded Metric: IC50 (µM)

As a guide, the following entries are already answered.
CC(C)(CCNC(=O)c1ccc(C(F)(F)F)cc1S(C)(=O)=O)S(=O)(=O)c1cc(F)cc(C(F)(F)F)c1 = 1.12
CC(C)(CNC(=O)c1ccc(C(F)(F)F)nc1)S(=O)(=O)c1cccc(C(F)(F)F)c1 = 3.19
COc1ccc(C(=O)NCC(C)(C)S(=O)(=O)c2cccc(C(F)(F)F)c2)cc1Cl = 1.02
CC(C)(CCNC(=O)[C@H]1CCCC[C@H]1N)S(=O)(=O)c1cccc(C(F)(F)F)c1 = 1.68
CC(C)S(=O)(=O)c1cccnc1C(=O)NCCC(C)(C)S(=O)(=O)c1cccc(C(F)(F)F)c1 = 1.1
COc1cc(CCNC(=O)CC(C)(C)S(=O)(=O)c2cccc(C(F)(F)F)c2)ccc1O = 1.22
COc1cc(C)ccc1C(=O)NCC(C)(C)S(=O)(=O)c1cccc(C(F)(F)F)c1 = 1.86
CC(C)(C(=O)NC1CCN(c2ccc(C(F)(F)F)cc2)CC1)S(=O)(=O)c1cccc(C(F)(F)F)c1 = 1.61
CC(C)(CNC(=O)c1cnccc1C(F)(F)F)S(=O)(=O)c1cccc(C(F)(F)F)c1 = 4.36

I. CC(C)(C(=O)N1CCN(c2cc(Cl)cc(Cl)c2)CC1)S(=O)(=O)c1cccc(C(F)(F)F)c1
II. CC(C)(C(=O)NCc1cccnc1Oc1ccc(F)cc1)S(=O)(=O)c1cccc(C(F)(F)F)c1
Among I and II , whose measured IC50 is the smaller figure? // output: label of the selected item II

---

Measured On: CaV2.2 (Homo sapiens)
Construct: expressed in transfected cells; host or cells: unnamed doxycycline-inducible cell line
Assay Text: High-throughput CaV2.2/Kir2.3 FLIPR fluorescent assay
Assay type: cell-based
Assay Setup: Table 4; Fluo-4 FLIPR; closed or inactivated state not stated; read-out: FLIPR data CaV2.2
pIC50: −log10 of the molar value.
Recorded Metric: pIC50

O=C(NCc1cc(S(=O)(=O)c2cccc(C(F)(F)F)c2)ccn1)c1ccnc(C(F)(F)F)n1 [Compound 113] = 5.86

P. CS(=O)(=O)c1cc(C(F)(F)F)cnc1C(=O)NCc1ccccc1S(=O)(=O)c1cccc(C(F)(F)F)c1 [Compound 43]
Q. O=C(NCc1ccc(S(=O)(=O)c2cccc(C(F)(F)F)c2)cn1)c1ccnc(C(F)(F)F)n1 [Compound 98]
Identify the entry with the larger pIC50. Options: P and Q // output: label of the selected item P
(P: 6.17, Q: 5.83)
